test.summary: binders of probe aFGF2 on microarray, primary screen, stem cell growth factor project, biochemical, small-molecule microarray, fluorescence 635/667 (AID 1067);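 further: measures binding of biotinylated aFGF2 protein to printed compounds on slides; z-score merges feature fluorescence and signal-to-noise across triplicate slides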
condition.parameters: higher = more signal
Classification field: enter 1 for composite z-score values not below -0.03, 0 for values below it.

Would you please look over these solved cases?
smiles: C=CCNC(=O)[C@H]1[C@@H]2C(=O)O[C@@H](c3ccccc3)[C@@H](c3ccccc3)N2[C@@H](c2ccc(OCCO)cc2)[C@]12C(=O)N(C(=O)OCCOC)c1ccc(C#Cc3ccc(OC)cc3)cc12
assigned.category: 1
--
smiles: [N-]=[N+]=NCc1ccccc1[C@@H]1OC(c2ccc(OCCCO)cc2)=N[C@]1(Cc1ccccc1N=[N+]=[N-])C(=O)NCCN1CCOCC1
assigned.category: 1

Is the recorded value of composite z-score equal to or greater than -0.03 for this compound? COCCOC(=O)N1C(=O)[C@@]2(c3cc(C#CCC(C(=O)OC)C(=O)OC)ccc31)[C@H](c1ccc(O)cc1)N1[C@H](c3ccccc3)[C@H](c3ccccc3)OC(=O)[C@H]1[C@@H]2C(=O)NC[C@H](O)c1ccccc1
1

Is the recorded value of composite z-score equal to or greater than -0.03 for this compound? C=C(/C(=C/C[C@H](OC(=O)c1ccncc1)c1ccccc1OCCO)c1cnc2ccccc2c1)C(C)C
0

Is the recorded value of composite z-score equal to or greater than -0.03 for this compound? C=CCN1C(=O)[C@]2(O[C@H](CCO)[C@@H]([Si](C)(C)c3ccc(OC)cc3)[C@@H]2C)c2cc(N3C(=O)COc4ccccc43)ccc21
0

Is the recorded value of composite z-score equal to or greater than -0.03 for this compound? CCOC(=O)C=Cc1cc(F)ccc1O
1

Numbers sourced from PubChem BioAssay.
